Molecular target: Cytochrome P450 3A4 (Homo sapiens, UniProt P08684)
Sequence (P08684 whole entry): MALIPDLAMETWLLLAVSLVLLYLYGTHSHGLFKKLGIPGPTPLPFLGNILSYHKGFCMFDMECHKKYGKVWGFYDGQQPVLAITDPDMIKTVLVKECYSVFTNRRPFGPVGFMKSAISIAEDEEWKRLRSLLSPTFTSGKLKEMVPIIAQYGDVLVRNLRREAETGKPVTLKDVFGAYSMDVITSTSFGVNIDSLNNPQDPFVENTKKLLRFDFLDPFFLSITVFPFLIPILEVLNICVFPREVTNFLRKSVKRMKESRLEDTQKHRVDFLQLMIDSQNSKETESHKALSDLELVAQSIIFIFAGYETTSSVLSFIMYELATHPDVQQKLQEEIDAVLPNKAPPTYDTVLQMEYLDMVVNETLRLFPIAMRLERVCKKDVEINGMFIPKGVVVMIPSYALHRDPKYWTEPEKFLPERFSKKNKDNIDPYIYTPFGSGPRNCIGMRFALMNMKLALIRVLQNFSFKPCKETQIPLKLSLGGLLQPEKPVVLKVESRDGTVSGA
Experiment: Inhibition of CYP3A4 (unknown origin)
Assay type: ADME
EXPERIMENTAL READOUT: IC50

Look at this compound and give its reported IC50. CNc1ccc(C(N)=O)cn1 > 20 µM

###

Test: Oral bioavailability in C57Bl6/N mouse at 10 mg/kg
Format: ADME, organism-based
Conditions: in vivo
EXPERIMENTAL READOUT: bioavailability (%)
Write down the numeric answer in % and omit the unit.

Data request, read-out bioavailability, for CNc1ccc(C(N)=O)cn1 19
